Recorded pIC50 values for a group of compounds are listed next.
Target: recombinant human KDM4A (Homo sapiens)
Experiment: 14CO2 capture enzymatic assay (decarboxylation of [1-14C] αKG), KDM4A
Conditions: 10 μM [1-14C] αKG, 90 μM non-labeled αKG, 50 μM peptide substrate, 37° C., 1 hour, final 1% DMSO
pIC50: −log10 of the molar value.

Some entries whose results are on file:
Cc1cccc(Cl)c1Cc1cc(C#N)c(O)c(C(=O)CCC(=O)O)n1 :: 5.52
N#Cc1cc(-c2cccc(-c3ccccc3)c2)nc(C(=O)CCC(=O)O)c1O :: < 4.40
N#Cc1cc(Cc2ccc3ccccc3c2)nc(C(=O)CCC(=O)O)c1O :: < 4.40
Cc1cccc(C(F)(F)F)c1Cc1cc(C#N)c(O)c(C(=O)CCC(=O)O)n1 :: < 4.40
Cc1cccc(C)c1C(=O)Nc1cc(C#N)c(O)c(C(=O)CCC(=O)O)n1 :: < 4.40

-- ask I have this compound here, N#Cc1cc(-c2cccc3cccnc23)nc(C(=O)CCC(=O)O)c1O , and I need its recorded pIC50.
-- reply < 4.40

-- ask # repeat for N#Cc1cc(Cc2c(F)ccc(Cl)c2F)nc(C(=O)CCC(=O)O)c1O
-- reply < 4.40

-- ask # repeat for N#Cc1cc(Oc2ccccc2Cl)cc(C(=O)CCC(=O)O)c1O
-- reply < 4.40

-- ask # repeat for N#Cc1cccc(Cc2cc(C#N)c(O)c(C(=O)CCC(=O)O)n2)c1
-- reply < 4.40

----------
Recorded pIC50 values for a group of compounds are listed next.
Target: recombinant human KDM4A (Homo sapiens)
Assay: 14CO2 capture enzymatic assay (decarboxylation of [1-14C] αKG), KDM4A
Settings: 10 μM [1-14C] αKG, 90 μM non-labeled αKG, 50 μM peptide substrate, 37° C., 1 hour, final 1% DMSO
pIC50: −log10 of the molar value.

Some entries whose results are on file:
COc1ccc(Oc2cc(C#N)c(O)c(C(=O)CCC(=O)O)c2)cc1 :: < 4.40
N#Cc1cc(Cc2c(Cl)ccc(F)c2Cl)cc(C(=O)CCC(=O)O)c1O :: < 4.40
N#Cc1cc(Cc2ccc(F)cc2)nc(C(=O)CCC(=O)O)c1O :: 4.77
N#Cc1cc(Cc2ccc(Cl)cc2Cl)nc(C(=O)CCC(=O)O)c1O :: < 4.40

-- ask I have this compound here, N#Cc1cc(Oc2ccc(F)cc2)cc(C(=O)CCC(=O)O)c1O , and I need its recorded pIC50.
-- reply < 4.40

----------
Biological target: recombinant human KDM4A (Homo sapiens)
Experiment: 14CO2 capture enzymatic assay (decarboxylation of [1-14C] αKG), KDM4A
Settings: 10 μM [1-14C] αKG, 90 μM non-labeled αKG, 50 μM peptide substrate, 37° C., 1 hour, final 1% DMSO
pIC50: −log10 of the molar value.
Recorded pIC50 values for a group of compounds are listed next.

Some entries whose results are on file:
N#Cc1cc(Oc2ccccc2)cc(C(=O)CCC(=O)O)c1O [Example 132] :: < 4.40
N#Cc1cc(-c2ccc(-c3ccccc3)cc2)nc(C(=O)CCC(=O)O)c1O [Example 75] :: 4.70
N#Cc1ccc(Cc2cc(C#N)c(O)c(C(=O)CCC(=O)O)n2)cc1 [Example 44] :: < 4.40
N#Cc1cc(CC2CCCCC2)nc(C(=O)CCC(=O)O)c1O [Example 33] :: < 4.40

--- query ---
-- ask I have this compound here, N#Cc1cc(Oc2ccc(F)cc2)nc(C(=O)CCC(=O)O)c1O [Example 79] , and I need its recorded pIC50.
-- reply < 4.40

----------
Recorded pIC50 values for a group of molecules are listed next.
Target: recombinant human KDM4A (Homo sapiens, UniProt O75164)
Experiment: 14CO2 capture enzymatic assay (decarboxylation of [1-14C] αKG), KDM4A
Settings: 10 μM [1-14C] αKG, 90 μM non-labeled αKG, 50 μM peptide substrate, 37° C., 1 hour, final 1% DMSO
Scale: negative log10 of molar concentration, which is what pIC50 denotes.

N#Cc1cc(C#N)c(O)c(C(=O)CCC(=O)O)n1 :: 4.80
N#Cc1cc(-c2ccncc2)nc(C(=O)CCC(=O)O)c1O :: 4.80
Cc1cc(F)cc(C)c1Cc1cc(C#N)c(O)c(C(=O)CCC(=O)O)n1 :: 5.82
N#Cc1ccccc1Cc1cc(C#N)c(O)c(C(=O)CCC(=O)O)n1 :: 4.89
Cc1ccc(Cl)c(Cc2cc(C#N)c(O)c(C(=O)CCC(=O)O)n2)c1Cl :: 4.47
N#Cc1cc(Cc2ccccc2C(F)(F)F)nc(C(=O)CCC(=O)O)c1O :: 4.66
N#Cc1cc(Cc2c(Cl)ccc(Cl)c2Cl)nc(C(=O)CCC(=O)O)c1O :: 4.96

--- query ---
-- ask Give pIC50 (recombinant human KDM4A (Homo sapiens, UniProt O75164)) of the following molecule: N#Cc1cc(Cc2c(Cl)cccc2C#N)nc(C(=O)CCC(=O)O)c1O
-- reply 4.80

----------
Recorded IC50 values for a group of compounds are listed next.
Molecular target: recombinant human KDM4A (Homo sapiens)
Assay: 14CO2 capture enzymatic assay (decarboxylation of [1-14C] αKG), KDM4A
Settings: 10 μM [1-14C] αKG, 90 μM non-labeled αKG, 50 μM peptide substrate, 37° C., 1 hour, final 1% DMSO
Protocol: Enzymatic activity was determined based on the capture of ^14CO2 released by the decarboxylation of [1-^14C] αKG (Zhang et al., Anal. Biochem., 1998, vol. 271, pp. 137-142). [1-^14C]alphaketoglutarate (αKG) was from Perkin-Elmer, H3K4me3 and H3K9me3 peptides were from Mimotopes. All other reagents were from Sigma. […] The dry filter paper was exposed to a storage phosphor screen for 24-72 hours and the images recorded using a Typhoon FLA 7000 Imager (Amersham Biosciences, Piscataway, NJ). […]

Some entries whose results are on file:
Cc1cccc(C)c1C(=O)N(C)c1cc(C#N)c(O)c(C(=O)CCC(=O)O)n1 :: > 40 µM
Cc1c(C#N)cccc1-c1cc(C#N)c(O)c(C(=O)CCC(=O)O)n1 :: > 40 µM
N#Cc1cc(-c2cccc(Cl)c2)cc(C(=O)CCC(=O)O)c1O :: > 40 µM
N#Cc1cc(Oc2ccccc2)nc(C(=O)CCC(=O)O)c1O :: > 40 µM
N#Cc1cc(Oc2ccc(Cl)cc2)cc(C(=O)CCC(=O)O)c1O :: > 40 µM
N#Cc1cc(Cc2c(Cl)cccc2Cl)nc(C(=O)CCC(=O)O)c1O :: 12 µM

-- ask I have this compound here, N#Cc1cc(Cc2c(Cl)cc(Cl)cc2Cl)cc(C(=O)CCC(=O)O)c1O , and I need its recorded IC50.
-- reply > 40 µM

-- ask # repeat for Cc1cccc(C)c1Cc1cc(C#N)c(O)c(C(=O)CCC(=O)O)c1
-- reply > 40 µM

----------
Molecular target: recombinant human KDM4A (Homo sapiens, UniProt O75164)
Sequence (O75164 1-359 limits assumed): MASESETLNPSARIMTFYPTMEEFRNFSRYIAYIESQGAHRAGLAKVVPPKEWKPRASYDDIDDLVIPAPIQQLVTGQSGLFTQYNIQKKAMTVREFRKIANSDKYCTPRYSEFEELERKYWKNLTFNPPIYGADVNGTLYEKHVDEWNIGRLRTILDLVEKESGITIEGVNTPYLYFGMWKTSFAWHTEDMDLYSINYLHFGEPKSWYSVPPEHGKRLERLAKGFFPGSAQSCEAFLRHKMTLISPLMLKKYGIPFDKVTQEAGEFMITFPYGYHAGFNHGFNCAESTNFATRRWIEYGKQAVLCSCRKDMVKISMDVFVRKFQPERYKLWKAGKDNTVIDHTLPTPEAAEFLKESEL
Assay: 14CO2 capture enzymatic assay (decarboxylation of [1-14C] αKG), KDM4A
Settings: 10 μM [1-14C] αKG, 90 μM non-labeled αKG, 50 μM peptide substrate, 37° C., 1 hour, final 1% DMSO
endpoint: IC50

Some entries whose results are on file:
N#Cc1cc(Cc2c(Cl)cc(F)cc2Cl)nc(C(=O)CCC(=O)O)c1O :: 2.9 µM
N#Cc1cc(CCc2ccccc2)nc(C(=O)CCC(=O)O)c1O :: > 40 µM

-- ask I have this compound here, N#Cc1cc(Cc2ccccc2F)nc(C(=O)CCC(=O)O)c1O , and I need its recorded IC50.
-- reply 37 µM

-- ask # repeat for N#Cc1cc(-c2ccc(OC(F)(F)F)cc2)nc(C(=O)CCC(=O)O)c1O
-- reply > 40 µM

-- ask # repeat for Cc1ccc(Cl)cc1-c1cc(C#N)c(O)c(C(=O)CCC(=O)O)n1
-- reply > 40 µM

-- ask # repeat for N#Cc1cc(Cc2cc(Cl)cc(Cl)c2)nc(C(=O)CCC(=O)O)c1O
-- reply > 40 µM

-- ask # repeat for N#Cc1cc(Cc2cccc(-c3ccccc3)c2)nc(C(=O)CCC(=O)O)c1O
-- reply > 40 µM

-- ask # repeat for N#Cc1cc(-c2cccc(C(F)(F)F)c2)nc(C(=O)CCC(=O)O)c1O
-- reply > 40 µM

-- ask # repeat for Cc1cc(F)ccc1-c1cc(C#N)c(O)c(C(=O)CCC(=O)O)n1
-- reply > 40 µM
